targetOfAssay: Signal transducer and activator of transcription 3 (Homo sapiens)
protocol: Inhibition of Stat3 in human MDA-MB-231 cells assessed as inhibition of Stat3 phosphorylation at 10 uM after 18 hrs by Western blotting analysis
Format: cell-based
Calls of active or inactive are those of the source. No cut-off for these calls is given here.
The reply should name one outcome from 1.0 (active), 0.0 (inactive)

# count of solved cases: 3
NCCCN1C(=O)c2ccc3c4ccc5c6c(ccc(c7ccc(c2c37)C1=O)c64)C(=O)N(CCCN)C5=O : 0.0
NCCN1C(=O)c2ccc3c4ccc5c6c(ccc(c7ccc(c2c37)C1=O)c64)C(=O)N(CCN)C5=O : 0.0
CN(CCCN)CCCN1C(=O)c2ccc3c4ccc5c6c(ccc(c7ccc(c2c37)C1=O)c64)C(=O)N(CCCN(C)CCCCN)C5=O : 0.0

Problem: Dear colleague, could you share the recorded outcome for CN(C)CCCN1C(=O)c2ccc3c4ccc5c6c(ccc(c7ccc(c2c37)C1=O)c64)C(=O)N(CCCN(C)C)C5=O when you have a moment?
Solution: 1.0

* * *

targetOfAssay: Hypoxia-inducible factor 1-alpha (Homo sapiens) (UniProt Q16665)
Sequence (Q16665 whole entry, looked up): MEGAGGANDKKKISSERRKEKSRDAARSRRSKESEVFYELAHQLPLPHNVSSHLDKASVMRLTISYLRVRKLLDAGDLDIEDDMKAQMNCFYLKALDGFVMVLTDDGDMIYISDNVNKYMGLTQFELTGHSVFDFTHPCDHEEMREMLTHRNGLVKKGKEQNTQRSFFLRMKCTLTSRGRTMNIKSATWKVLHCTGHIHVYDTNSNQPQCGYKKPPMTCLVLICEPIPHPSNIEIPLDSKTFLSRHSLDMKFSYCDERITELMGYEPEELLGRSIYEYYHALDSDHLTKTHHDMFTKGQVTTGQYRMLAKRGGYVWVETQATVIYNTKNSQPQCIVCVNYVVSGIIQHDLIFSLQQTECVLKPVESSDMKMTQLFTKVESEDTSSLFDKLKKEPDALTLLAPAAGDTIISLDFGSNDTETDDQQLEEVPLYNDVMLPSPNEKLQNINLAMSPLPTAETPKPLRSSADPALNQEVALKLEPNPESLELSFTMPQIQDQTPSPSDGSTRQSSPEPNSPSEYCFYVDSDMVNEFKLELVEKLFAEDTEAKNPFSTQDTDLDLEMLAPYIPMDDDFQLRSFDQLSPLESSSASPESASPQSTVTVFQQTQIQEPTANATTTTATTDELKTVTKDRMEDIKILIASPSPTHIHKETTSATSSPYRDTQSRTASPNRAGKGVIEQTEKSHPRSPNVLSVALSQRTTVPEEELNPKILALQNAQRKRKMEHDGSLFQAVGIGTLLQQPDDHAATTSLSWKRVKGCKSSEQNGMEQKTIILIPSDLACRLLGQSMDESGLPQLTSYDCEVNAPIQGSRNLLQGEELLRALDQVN
protocol: Inhibition of HIF-1alpha in human MDA-MB-231 cells at 10 uM after 18 hrs by Western blotting analysis in hypoxia condition
Assay type: cell-based
Calls of active or inactive are those of the source. The calls are words filed in the database; no cut-off is given here.
assayReadout: inhibition

NCCCN1C(=O)c2ccc3c4ccc5c6c(ccc(c7ccc(c2c37)C1=O)c64)C(=O)N(CCCN)C5=O : inactive
NCCN1C(=O)c2ccc3c4ccc5c6c(ccc(c7ccc(c2c37)C1=O)c64)C(=O)N(CCN)C5=O : inactive
CN(CCCN)CCCN1C(=O)c2ccc3c4ccc5c6c(ccc(c7ccc(c2c37)C1=O)c64)C(=O)N(CCCN(C)CCCCN)C5=O : inactive
